- Tested on: Erythrocyte
- measurement_protocol: Hemolytic activity against human RBC assessed as concentration required to cause >20% hemolysis
- Assay type: ADME, cell-based
quantity: HC20 (µM)
Respond numerically; units are µM and should not be typed.

CCCCCCCC[N+]1(C)CCCC1.[Br-]
125
CCCCCCCCCCCCCCCC[S+]1CCCC1.[I-]
16
C[N+]1(CCCCCCCC[N+]2(C)CCCC2)CCCC1.[Br-].[Br-]
125

Lookup: What does the data say about its HC20? Entry: `CCCCCCCC[S+]1CCCC1.[I-]`
Found: 125

Lookup: Now give it for `CCCCCCCCCC[N+]1(C)CCCC1.[Br-]` too.
Found: 250

Lookup: Queued: `CCCCCCCCCCCCCCCCCC[N+]1(C)CCCC1.[Br-]`
Found: 16

Lookup: Can you check `CCCCCCCCCCC[N+]1(C)CCCC1.[Br-]` next?
Found: 125

Lookup: Proceed to `CCCCCCCCCCC[S+]1CCCC1.[I-]`
Found: 125

Lookup: # repeat for `CCCCCCCCCCCCCC[N+]1(C)CCCC1.[Br-]`
Found: 32

Lookup: Would you kindly repeat that for `CCCCCCCCCC[S+]1CCCC1.[I-]` ?
Found: 125

Lookup: What do you get for `CCCCCCCCCCCCCCCC[N+]1(C)CCCC1.[Br-]` ?
Found: 16

###

- Test system: Staphylococcus aureus
- measurement_protocol: microbe, parasite or virus in culture
- Type: functional
- condition_context: ATCC 33591
- Description: Antimicrobial activity against hospital acquired methicillin-resistant Staphylococcus aureus ATCC 33591 assessed as inhibition of microbial growth
Threshold check on MIC: strictly below 60 µM is Condition met; on or above 60 µM is Condition not met.

CCCCCCCCCCCCC[N+]1(C)CCCC1.[Br-]
Condition not met
CCCCCCCC[S+]1CCCC1.[I-]
Condition not met
CCCCCCCCCC[S+]1CCCC1.[I-]
Condition not met
CCCCCCCC[N+]1(C)CCCC1.[Br-]
Condition not met
C[N+]1(CCCCCCCC[N+]2(C)CCCC2)CCCC1.[Br-].[Br-]
Condition not met
CCCCCCCCCCCCCCCCCC[N+]1(C)CCCC1.[Br-]
Condition met
C(CCCC[S+]1CCCC1)CCC[S+]1CCCC1.[I-].[I-]
Condition not met
CCCCCCCCCCCC[N+]1(C)CCCC1.[Br-]
Condition not met
CCCCCCCCCCCCCC[N+]1(C)CCCC1.[Br-]
Condition met
CCCCCCCCCCCCCCCCCC[S+]1CCCC1.[I-]
Condition met

Lookup: # strict comparison: is reported MIC < 60 µM? input = `CCCCCCCCCCC[S+]1CCCC1.[I-]`
Found: Condition not met

Lookup: Subsequent entry: `CCCCCCCCCCCCCCCC[S+]1CCCC1.[I-]`
Found: Condition met

Lookup: # iterate: `C(CCCCCC[S+]1CCCC1)CCCCC[S+]1CCCC1.[I-].[I-]`
Found: Condition not met
